experimental-protocol: reduction of polyQ htt aggregates in cells – imaging, exon1htt(103Q)mCFP cells, high-content imaging, primary screen (AID 483);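 further: compound exposure lasted 3 days before fixation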
details: exon1htt(103Q)mCFP cell line, aggregate imaging, at 2 µM; active compounds read high
measured-metric: inhibition of aggregation (%)
Please respond with the number in % and leave the unit unwritten.

Could you tell me which inhibition of aggregation is on file for "CCc1nc(SCc2cc(Cl)ccc2OC)n[nH]1" ? -8.3

// lookup inhibition of aggregation for "CCOC(=O)c1c(C)[nH]c(C)c1C(=O)COC(=O)CNC(=O)c1ccc(OCC)cc1" 5.2

Quick one: inhibition of aggregation of "CC(=O)Nc1c(C(=O)O)[nH]c2ccccc12" ? -7.5

Form field: reported inhibition of aggregation of "COC(=O)Nc1ccccc1C(=O)N1CCCCC1" 4

// returns reported inhibition of aggregation for input "CCOC(=O)Cn1c2c(c(=N)c3ccccc31)CCC2" -0.7

Any idea what inhibition of aggregation was measured for "NC(=O)c1sc2nc3c(c(-c4ccco4)c2c1N)CCC3" ? 1.6

Which measured inhibition of aggregation value corresponds to "COc1ccccc1N(CC(=O)Nc1cccnc1)S(C)(=O)=O" ? 20.5

Param item = CCCCOc1ccc(C2C3CN(C(=O)OCC)CC=C3C(C#N)=C(N)C2(C#N)C#N)cc1OC (centres undefined) ; retrieve measured inhibition of aggregation. -9.8

Report inhibition of aggregation for "CCc1c(C(=O)N2CCOCC2)csc1C" please. -15

So what's the measured inhibition of aggregation for this one? CCC1CCCCN1C(=O)C1CC(c2cc(Cl)c(OC)cc2OC)=NO1 (centres undefined) 1.6

Reported inhibition of aggregation, molecule "CCCCN(C)C(=O)c1cn(C)c2ccc(S(=O)(=O)N(C)C)cc2c1=O" : ____ 15.7

Returns the measured inhibition of aggregation for the input molecule. Input: "O=c1[nH]c(=O)n(C2CCCCCC2)c(O)c1C=NCc1ccc(F)cc1" 0.1

For CCOC(=O)CN1CC23C=CC(O2)C(C(=O)Nc2ccc(OC)cc2OC)C3C1=O (centres undefined) , what is its reported inhibition of aggregation? 8.7

Item under review: "COc1ccc(C(NC(=O)C(C)(C)C)NC(=O)C(C)(C)C)cc1" . Reported inhibition of aggregation? 0.4

Which inhibition of aggregation is reported for this molecule? "CCn1ncc(Cl)c1C(=O)Nc1ccncc1" -21.9

Recorded inhibition of aggregation for "CCOC(=O)/C=C1\SCC(=O)N1Cc1ccc(Br)cc1" , please? -14.9

Suppose we examine the molecule "CCCS(=O)(=O)N1CCN(C(=O)c2cccnc2)CC1" ; what inhibition of aggregation value has been reported? -5.9

Give its inhibition of aggregation value. Item: "COCCCNC(=O)C1CCN(C(=O)Nc2ccc(Cl)cc2)CC1" 18.9

# query: inhibition of aggregation of entry CC(=O)c1ccc(NC2OC(C)C(O)C(O)C2O)cc1 (centres undefined) -0.6

Endpoint output: inhibition of aggregation of "O=[n+]1c2c(n([O-])c3c1CCCC3)CCCC2" . Value? -17.7

Give the measured inhibition of aggregation of Cc1csc(NC(=O)C(Cc2ccccc2)n2cccc2)n1 (centres undefined) . 27

What value of measured inhibition of aggregation is listed for O=C(CSc1nc2c(c(=O)n1-c1ccc(F)cc1)SCC2)NCC1CCCO1 (centres undefined) ? 16.7

Quick check: inhibition of aggregation of "Cc1c(C)[n+](=O)c2c(n1[O-])CCCCC2" ? 10.6

Fill in: inhibition of aggregation of "CCOC(=O)CSc1nnc(-c2ccc(Cl)cc2Cl)o1" is ___ -9.2

Entry source: PubChem BioAssay
